TARGET_ENTITY: HA of influenza B virus B/Florida/4/2006 (yamagata) (influenza B virus B/Florida/4/2006)
TEST_PROTOCOL: cell-based or functional assay
Overview of recorded Neutralization (Ave IC50 ug/ml) for various binders
// units = µg/mL; emit number, no label

Solved entries:
binder="FBC-39 LSL (antibody, V domains shown) VH: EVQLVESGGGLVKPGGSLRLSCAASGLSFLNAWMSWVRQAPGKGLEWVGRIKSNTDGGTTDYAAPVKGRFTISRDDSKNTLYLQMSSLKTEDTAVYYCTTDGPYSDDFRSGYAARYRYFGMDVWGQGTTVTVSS VL: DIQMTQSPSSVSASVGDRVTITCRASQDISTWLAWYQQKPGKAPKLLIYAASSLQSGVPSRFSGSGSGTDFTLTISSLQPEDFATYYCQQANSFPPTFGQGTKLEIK" numeric_value=0.016
binder="FBC-39 FSL (antibody, V domains shown) VH: EVQLVESGGGLVKPGGSLRLSCAASGFSFLNAWMSWVRQAPGKGLEWVGRIKSNTDGGTTDYAAPVKGRFTISRDDSKNTLYLQMSSLKTEDTAVYYCTTDGPYSDDFRSGYAARYRYFGMDVWGQGTTVTVSS VL: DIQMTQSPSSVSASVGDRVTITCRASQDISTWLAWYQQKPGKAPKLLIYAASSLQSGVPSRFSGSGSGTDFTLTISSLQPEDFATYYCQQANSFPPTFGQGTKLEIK" numeric_value=0.017
binder="FBC-39 (antibody, V domains shown) VH: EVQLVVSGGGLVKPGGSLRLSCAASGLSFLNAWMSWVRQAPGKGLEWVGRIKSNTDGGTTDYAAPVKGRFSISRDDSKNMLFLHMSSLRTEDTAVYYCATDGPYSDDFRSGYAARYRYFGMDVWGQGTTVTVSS VL: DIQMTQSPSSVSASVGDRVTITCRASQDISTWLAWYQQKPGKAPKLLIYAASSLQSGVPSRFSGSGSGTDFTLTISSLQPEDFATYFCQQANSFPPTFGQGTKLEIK" numeric_value=0.046

Ask: Assign Neutralization (Ave IC50 ug/ml) to the following record: FBD-56 (antibody, V domains shown) VH: EVQLVESGGHLVQPGRSLRLSCAASGFTFEDYAMNWVRQAPGKGLEWVSVISWDSGRIGYADSVKGRFTISRDNAKNSSYLQMNSLRPEDTALYYCVRDMLAYYSDNSGKKYNVYGMDVWGQGTTVTVSS VL: EIVLTQSPATLSLSPGERATLSCRASQSVSTFLAWYQQKPGQAPRLLMYDASNRATGIPARFSGSGSGTDFTLTISSLEPEDFAIYYCQQRSHWPPIFGQGTRLEIK
Result: 0.013
